Just for reference, patent US12391669B2 is where these values come from.

Quick list: log10 IC50 per entry.
- MEASURED_TARGET: IRE1α kinase (Homo sapiens (Human), UniProt O75460)
- ASSAY_DETAILS: IRE1α kinase IC50
- Type: biochemical
- CONDITION_INFO: (HF)
READOUT_LABEL: log10 IC50 (log10 of the value in nM)

>>> recorded_value("O=S(=O)(Cc1ccccc1Cl)Nc1ccc(Oc2ncsc2-c2ccnc(N[C@H]3CCCNC3)n2)cc1F")
2.08
>>> recorded_value("Cc1nc(Oc2ccc(NS(=O)(=O)c3ccccc3Cl)c3ccccc23)c(-c2ccnc(N[C@H]3CCCNC3)n2)s1")
1.80
>>> recorded_value("Cc1ccc(C(=O)NCc2ccccc2Cl)cc1Oc1ncsc1-c1ccnc(N[C@H]2CCCNC2)n1")
1.74
>>> recorded_value("O=S(=O)(NCc1cccc(Oc2ncsc2-c2ccnc(N[C@H]3CCCNC3)n2)c1)c1ccccc1Cl")
3.20
>>> recorded_value("Cc1cc(NS(=O)(=O)c2ccccc2Cl)ccc1Oc1ncsc1-c1ccnc(N[C@H]2CCCNC2)n1")
3.06
>>> recorded_value("Cc1ccc(C(=O)N(C)Cc2ccccc2Cl)cc1Oc1ncsc1-c1ccnc(N[C@H]2CCCNC2)n1")
3.50
>>> recorded_value("Cc1ccc(C(=O)Nc2ccccc2Cl)cc1Oc1ncsc1-c1ccnc(N[C@H]2CCCNC2)n1")
2.49
>>> recorded_value("O=C(NCc1ccccc1Cl)c1cccc(Oc2ncsc2-c2ccnc(N[C@H]3CCCNC3)n2)c1")
2.72

###

Quick list: pIC50 per entry.
- MEASURED_TARGET: IRE1α kinase (Homo sapiens (Human), UniProt O75460)
- ASSAY_DETAILS: IRE1α kinase IC50
- Assay type: biochemical
pIC50: −log10 of the molar value.
READOUT_LABEL: pIC50

>>> recorded_value("O=S(=O)(Nc1ccc(Oc2nccnc2-c2ccnc(N[C@H]3CCCNC3)n2)cc1F)c1ccccc1Cl")
5.21
>>> recorded_value("O=S(=O)(Nc1ccc(Oc2nccnc2-c2ccnc(N[C@H]3CCCNC3)n2)c2ccccc12)c1ccccc1Cl")
6.53
>>> recorded_value("O=S(=O)(Nc1ccc(Oc2ncsc2-c2ccnc(N[C@H]3CCCNC3)n2)cc1F)c1ccccc1Cl")
6.93
>>> recorded_value("O=S(=O)(Cc1ccccc1Cl)Nc1ccc(Oc2nccnc2-c2ccnc(N[C@H]3CCCNC3)n2)cc1F")
6.02
>>> recorded_value("O=S(=O)(Nc1cccc2c(Oc3ncsc3-c3ccnc(N[C@H]4CCCNC4)n3)cccc12)c1ccccc1Cl")
8.00
>>> recorded_value("Cc1ccc2c(NS(=O)(=O)c3ccccc3Cl)cccc2c1Oc1nccnc1-c1ccnc(N[C@H]2CCCNC2)n1")
7.01
>>> recorded_value("c1ccc2[nH]c(Cc3ccc(Oc4ncsc4-c4ccnc(N[C@H]5CCCNC5)n4)cc3)nc2c1")
6.36
>>> recorded_value("c1ccc2[nH]c(Cc3ccc(Oc4nccnc4-c4ccnc(N[C@H]5CCCNC5)n4)cc3)nc2c1")
5.14

###

- MEASURED_TARGET: IRE1α kinase (Homo sapiens (Human), UniProt O75460)
- ASSAY_DETAILS: IRE1α kinase IC50
- Type: biochemical
- CONDITION_INFO: (RB)
pIC50: −log10 of the molar value.
READOUT_LABEL: pIC50

>>> recorded_value("Cc1ccc(C(=O)Nc2ccccc2Cl)cc1Oc1ncsc1-c1ccnc(N[C@H]2CCCNC2)n1")
6.64

###

Please consider the recorded IC50 for IRE1β kinase (Homo sapiens (Human)) in what follows.
READOUT_LABEL: IC50 (nM)

>>> recorded_value("O=S(=O)(Nc1cccc2c(Oc3ncsc3-c3ccnc(N[C@H]4CCCNC4)n3)cccc12)c1ccccc1Cl")
181
>>> recorded_value("c1ccc2[nH]c(Cc3ccc(Oc4ncsc4-c4ccnc(N[C@H]5CCCNC5)n4)cc3)nc2c1")
8400
>>> recorded_value("O=S(=O)(Nc1ccc(Oc2nccnc2-c2ccnc(N[C@H]3CCCNC3)n2)cc1F)c1ccccc1Cl")
2100
>>> recorded_value("O=S(=O)(Cc1ccccc1Cl)Nc1ccc(Oc2nccnc2-c2ccnc(N[C@H]3CCCNC3)n2)cc1F")
1570

###

Quick list: pIC50 per entry.
- MEASURED_TARGET: IRE1α RNase (Homo sapiens (Human))
- Sequence (O75460 19-977): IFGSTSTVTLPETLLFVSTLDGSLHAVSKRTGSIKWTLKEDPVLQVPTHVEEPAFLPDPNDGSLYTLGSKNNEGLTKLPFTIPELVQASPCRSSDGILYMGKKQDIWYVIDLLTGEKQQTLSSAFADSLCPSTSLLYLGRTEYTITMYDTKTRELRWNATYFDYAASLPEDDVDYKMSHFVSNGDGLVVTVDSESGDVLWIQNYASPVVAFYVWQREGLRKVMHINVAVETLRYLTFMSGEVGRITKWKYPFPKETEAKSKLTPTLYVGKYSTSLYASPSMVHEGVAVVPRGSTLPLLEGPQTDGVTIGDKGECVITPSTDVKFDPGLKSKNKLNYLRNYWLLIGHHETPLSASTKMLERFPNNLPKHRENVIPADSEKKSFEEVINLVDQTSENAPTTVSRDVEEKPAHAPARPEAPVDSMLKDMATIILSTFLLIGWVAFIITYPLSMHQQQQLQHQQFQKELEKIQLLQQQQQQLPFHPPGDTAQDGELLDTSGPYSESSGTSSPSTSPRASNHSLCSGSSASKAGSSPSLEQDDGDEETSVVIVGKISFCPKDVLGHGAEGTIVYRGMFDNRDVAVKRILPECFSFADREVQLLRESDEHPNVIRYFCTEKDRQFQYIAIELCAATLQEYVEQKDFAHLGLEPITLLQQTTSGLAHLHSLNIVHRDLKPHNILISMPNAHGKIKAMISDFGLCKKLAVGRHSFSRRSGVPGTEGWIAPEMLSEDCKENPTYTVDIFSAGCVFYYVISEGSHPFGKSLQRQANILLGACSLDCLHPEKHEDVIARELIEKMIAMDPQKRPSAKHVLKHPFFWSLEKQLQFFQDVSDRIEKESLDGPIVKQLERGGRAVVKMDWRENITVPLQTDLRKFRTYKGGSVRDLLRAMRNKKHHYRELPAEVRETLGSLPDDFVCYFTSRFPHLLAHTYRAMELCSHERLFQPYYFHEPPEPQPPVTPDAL
- ASSAY_DETAILS: IRE1α RNase IC50
- Type: biochemical
- CONDITION_INFO: (HF)
pIC50: −log10 of the molar value.
READOUT_LABEL: pIC50

>>> recorded_value("Cc1nc(Oc2ccc(NS(=O)(=O)c3ccccc3Cl)c3ccccc23)c(-c2ccnc(N[C@H]3CCCNC3)n2)s1 [compound 67]")
7.72
>>> recorded_value("O=S(=O)(Cc1ccccc1Cl)Nc1ccc(Oc2ncsc2-c2ccnc(N[C@H]3CCCNC3)n2)cc1F [compound 11]")
7.62
>>> recorded_value("c1cc(Cc2nc3ccccc3[nH]2)cc(Oc2ncsc2-c2ccnc(N[C@H]3CCCNC3)n2)c1 [compound 35]")
6.82
>>> recorded_value("O=S(=O)(Nc1cccc2c(Oc3ncsc3-c3ccnc(N[C@H]4CCCNC4)n3)cccc12)c1ccccc1Cl [compound 47]")
8.08
>>> recorded_value("Cc1ccc2c(NS(=O)(=O)c3ccccc3Cl)cccc2c1Oc1nccnc1-c1ccnc(N[C@H]2CCCNC2)n1 [compound 96]")
6.93
>>> recorded_value("O=S(=O)(Nc1ccc(Oc2ncsc2-c2ccnc(N[C@H]3CCCNC3)n2)cc1F)c1ccccc1Cl [compound 25]")
7.34
